The reported numbers originate from PubChem BioAssay AID1159580.

assay: chemical genetic growth profiling, strain panel (AID 1159580);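 further: tested at 20 µM; growth read once vehicle control cultures reached saturation at 30 °C; 1 = growth at the plate median or of vehicle wells; lower values mean less growth of the strain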; conditions: S. cerevisiae deletion strains, growth OD, locus YPL241C, strain CIN2
The campaign covered roughly 5,500 compounds. About 2,000 (36%) were called active. About 18% were inconclusive and are not listed. No stated cut-off is given here; in the data, active means normalized growth mostly below about 0.91 (no sharp cut-off); inconclusive means no clear call, values can overlap the other calls; inactive means mostly above about 0.92. The list shows a part of the results.
Please reply with one of these outcomes: active, inactive

Past entries and their recorded results:
molecule | class_label
CCN(CC)c1ncnc2c1ncn2[C@@H]1O[C@H](COP(=O)(O)OP(=O)(O)C(Br)(Br)P(=O)(O)O)[C@@H](O)[C@H]1O | inactive
CC(C)(C)OC(=O)C(C)(C)S(=O)(=O)c1ccc(Cl)cc1 | inactive
Nc1ccc(S(=O)(=O)c2ccc(N)cc2)cc1 | inactive

Would you mind telling me which call this test gave `FC(F)(F)c1cccc(CSc2n[nH]c(=S)s2)c1` ? active

Hello, I am checking results. What call was entered for `Cc1cc(OCOc2ccc(Cl)c(C)c2)ccc1Cl` ? inactive

Recorded test outcome, item `C[C@@H]1C(=O)O[C@H]2[C@H]1CC[C@@]1(C)C=CC(=O)[C@@]3(C)O[C@@]213` inactive

Query: recorded result category for `NCCC(=O)N[C@@H](Cc1cnc[nH]1)C(=O)O` in this test inactive

// return assay outcome for `S=c1[nH]nc(SCCSc2n[nH]c(=S)s2)s1` inactive

* * *

assay: chemical genetic growth profiling, strain panel (AID 1159580);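 further: tested at 20 µM; growth read once vehicle control cultures reached saturation at 30 °C; 1 = growth at the plate median or of vehicle wells; lower values mean less growth of the strain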; conditions: S. cerevisiae deletion strains, growth OD, locus YDL101C, strain DUN1, hits give low values
Among all 5,500 compounds or so, about 2,000 (36%) were called active. Not shown: some 18% with an inconclusive outcome. Some of the results follow.
reported_property: normalized growth
When you answer, write just the number.

Look up normalized growth: `Cc1cc(=O)[nH]c(-c2ccccn2)n1` 0.994

Using the record for Fc1ccc(C(c2ccccc2)(c2ccccc2F)n2ccnc2)cc1 (stereo not given) , report its normalized growth. 0.0698

// query normalized growth value for entry C#C[C@]1(O)CCC2C3CCC4=CC(=O)CC[C@@H]4C3CC[C@@]21CC (stereo not given in full) 0.987

Fill blank: measured normalized growth of the compound `Clc1ccccc1C(c1ccccc1)(c1ccccc1)n1ccnc1` is ____. 0.0582

Recorded normalized growth for COC(=O)/C(C)=C\CC12OC(C)(C)C3CC(C=C4C(=O)c5c(O)c6c(c(CCC(C)(C)Cl)c5OC431)OC1(C)CCC(=C(C)C)C6C1)C2=O (stereo not given) , please? 0.999

Which measured normalized growth value corresponds to `Cc1nc(-c2ccccn2)[nH]c(=O)c1Cc1c(Cl)cccc1Cl` ? 0.965

Could you tell me which normalized growth is on file for C#C[C@]1(OC(C)=O)CCC2C3CCC4=CC(=O)CC[C@@H]4C3CC[C@@]21C (stereo not given in full) ? 0.97

Name the reported normalized growth value associated with the compound `Cc1oc(C(C)(C)C)cc1-c1cc(N)n(-c2ccc(I)cc2)n1` 0.987

What does the record list as normalized growth for C[C@H]1[C@H](C)CC[C@]2(CO)CC[C@]3(C)C(=CCC4[C@@]5(C)CC[C@H](O)C(C)(C)C5CC[C@]43C)[C@H]12 (stereo not given in full) ? 1.02

I am curious: what normalized growth value has been reported for `CC(C)(C)c1nccc(-c2nn(-c3ccc(F)cc3)ccc2=O)n1` ? 1.03
